# TARGET ENTITY: T1, DLG3_1, Q92796
# T1 sequence (Q92796 125-227, limits assumed, looked up): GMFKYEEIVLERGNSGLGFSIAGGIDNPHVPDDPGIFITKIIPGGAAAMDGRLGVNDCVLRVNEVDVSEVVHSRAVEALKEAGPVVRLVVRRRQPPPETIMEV
# ASSAY NAME: holdup assay
# Design: key: below the threshold = too weak to quantify, mostly under pKd 3.1 to 4
# RUN CONDITIONS: plain residues with an end cap or a label only (N-terminal biotin on a linker: ado-ado)
MEASURED PROPERTY: pKd
In your answer, state the number alone without any accompanying words.

Asked: Look up pKd: MQHQRTHTRV [ZSCAN30, Q86W11]
Given back: 4.03

Asked: What value of pKd has been reported for the following binder? DTKNYKQTSV [CRIPT, Q9P021]
Given back: 3.69

Where do these numbers come from? They come from paper PMC9482650.
